# Target system: Estrogen receptor (Mus musculus) (UniProt O08537+P19785)
# Sequence (O08537 whole entry, looked up): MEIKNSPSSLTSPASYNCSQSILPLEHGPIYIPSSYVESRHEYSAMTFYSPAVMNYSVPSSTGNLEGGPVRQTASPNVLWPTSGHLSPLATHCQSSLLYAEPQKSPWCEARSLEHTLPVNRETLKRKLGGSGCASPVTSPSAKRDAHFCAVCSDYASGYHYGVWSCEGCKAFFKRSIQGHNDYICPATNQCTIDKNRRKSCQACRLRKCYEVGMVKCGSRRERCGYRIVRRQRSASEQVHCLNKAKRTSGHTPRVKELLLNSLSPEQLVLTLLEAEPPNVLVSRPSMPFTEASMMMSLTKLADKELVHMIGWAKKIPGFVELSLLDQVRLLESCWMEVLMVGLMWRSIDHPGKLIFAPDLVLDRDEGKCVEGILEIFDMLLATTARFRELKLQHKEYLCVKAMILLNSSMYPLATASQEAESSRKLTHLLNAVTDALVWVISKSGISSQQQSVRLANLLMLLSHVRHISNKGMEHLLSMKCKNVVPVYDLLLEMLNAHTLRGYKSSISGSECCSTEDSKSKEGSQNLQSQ
# Sequence (P19785 whole entry, looked up): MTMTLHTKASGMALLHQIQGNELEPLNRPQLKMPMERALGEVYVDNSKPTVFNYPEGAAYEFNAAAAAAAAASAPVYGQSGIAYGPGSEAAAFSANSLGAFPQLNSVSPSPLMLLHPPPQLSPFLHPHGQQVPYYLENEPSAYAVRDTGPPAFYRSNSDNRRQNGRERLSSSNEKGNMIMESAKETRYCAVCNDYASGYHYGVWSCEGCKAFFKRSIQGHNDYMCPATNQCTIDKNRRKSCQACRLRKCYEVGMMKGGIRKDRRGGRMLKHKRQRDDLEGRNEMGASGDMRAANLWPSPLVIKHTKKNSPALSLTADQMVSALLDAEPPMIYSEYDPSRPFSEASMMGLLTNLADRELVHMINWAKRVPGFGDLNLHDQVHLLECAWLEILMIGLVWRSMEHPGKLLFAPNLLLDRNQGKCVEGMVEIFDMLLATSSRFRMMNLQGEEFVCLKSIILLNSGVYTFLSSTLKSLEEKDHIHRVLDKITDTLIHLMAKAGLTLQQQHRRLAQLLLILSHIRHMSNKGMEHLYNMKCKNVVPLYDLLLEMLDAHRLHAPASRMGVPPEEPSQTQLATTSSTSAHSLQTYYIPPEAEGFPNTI
# Test name: Anti-uterotrophic effect in mice at 0 ug
# Assay type: functional
Give Effect for every item shown.
Numbers only.

>>> observed_measurement("CC(C)(c1cc(O)ccc1Cl)C(C)(C)c1cc(O)ccc1Cl")
13.7
>>> observed_measurement("CC(C)(c1cc(O)ccc1F)C(C)(C)c1cc(O)ccc1F")
13.7
>>> observed_measurement("Cc1cc(O)ccc1C(C)(C)C(C)(C)c1ccc(O)cc1C")
13.7

Quick request: Effect for each listed item, please.
1. CC(C)(c1ccc(O)cc1F)C(C)(C)c1ccc(O)cc1F
2. CC(C)(c1ccc(O)cc1Cl)C(C)(C)c1ccc(O)cc1Cl

13.8
13.7
